Quick note: these are AC50 numbers for system: Sodium-dependent noradrenaline transporter (Homo sapiens, UniProt P23975); note: assay procedure not described here
Sequence (P23975 whole entry): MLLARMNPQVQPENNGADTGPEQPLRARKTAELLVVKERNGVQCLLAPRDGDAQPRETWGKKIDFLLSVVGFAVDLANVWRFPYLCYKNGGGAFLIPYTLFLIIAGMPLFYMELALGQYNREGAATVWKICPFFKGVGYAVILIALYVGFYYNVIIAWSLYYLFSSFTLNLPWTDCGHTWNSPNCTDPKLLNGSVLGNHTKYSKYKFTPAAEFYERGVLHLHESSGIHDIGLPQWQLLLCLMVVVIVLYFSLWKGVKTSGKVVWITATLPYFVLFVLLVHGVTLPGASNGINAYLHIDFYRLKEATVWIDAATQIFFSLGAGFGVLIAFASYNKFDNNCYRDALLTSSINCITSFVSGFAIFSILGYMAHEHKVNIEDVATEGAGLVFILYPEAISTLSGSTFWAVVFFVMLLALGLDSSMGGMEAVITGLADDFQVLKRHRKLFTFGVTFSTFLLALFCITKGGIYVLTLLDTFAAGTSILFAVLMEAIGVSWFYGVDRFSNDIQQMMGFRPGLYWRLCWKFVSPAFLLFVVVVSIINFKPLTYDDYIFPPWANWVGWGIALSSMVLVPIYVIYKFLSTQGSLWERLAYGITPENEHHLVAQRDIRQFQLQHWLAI

{"columns": ["compound", "AC50"],
 "data": [
  ["CCOC(=O)[C@H](CCc1ccccc1)N[C@@H](C)C(=O)N1Cc2ccccc2C[C@H]1C(=O)O", "> 10 µM"],
  ["O=C1CC2(CCCC2)CC(=O)N1CCCCN1CCN(c2ncccn2)CC1 [BUSPIRONE]", "> 30 µM"],
  ["CC(C)(C)NCC(O)COc1cccc2c1CC(O)C(O)C2 (stereo not drawn) [NADOLOL]", "> 10 µM"],
  ["COC(=O)[C@H]1[C@H]2C[C@@H]3c4[nH]c5ccccc5c4CCN3C[C@H]2C[C@@H](OC(=O)c2cc(OC)c(OC)c(OC)c2)[C@@H]1OC [DESERPIDINE]", "> 10 µM"],
  ["Cc1cccc(Nc2ccncc2S(=O)(=O)NC(=O)NC(C)C)c1 [TORSEMIDE]", "> 10 µM"],
  ["CO[C@@H]1[C@@H](OC(N)=O)[C@@H](O)[C@H](Oc2ccc3c(O)c(NC(=O)c4ccc(O)c(CC=C(C)C)c4)c(=O)oc3c2C)OC1(C)C [NOVOBIOCIN]", "> 30 µM"],
  ["CO/N=C(\\C(=O)N[C@@H]1C(=O)N2C(C(=O)O)=C(CSc3nc(C)c(CC(=O)O)s3)CS[C@H]12)c1csc(N)n1 [CEFODIZIME]", "> 30 µM"]
]}

Consider now this further compound.
Lookup: Using the record for COc1ccc2c3c1O[C@H]1C(=O)CC[C@H]4[C@@H](C2)N(C)CC[C@]314 [HYDROCODONE] , report its AC50.
Found: > 10 µM

====

biological target: Glutamate receptor ionotropic, NMDA 1 (Rattus norvegicus, UniProt P35439); note: assay procedure not described here
Where a SMILES comes first, the peptide text is derived from it.
// reported AC50 for each item listed

{"columns": ["compound", "measured-target", "AC50"],
 "data": [
  ["CN1C(=O)CN=C(c2ccccc2F)c2cc([N+](=O)[O-])ccc21", "Glutamate receptor ionotropic, NMDA 1 (Rattus norvegicus, UniProt P35439)", "> 10 µM"],
  ["CN1CCCN=C1/C=C/c1cccc(O)c1", "Glutamate receptor ionotropic, NMDA 1 (Rattus norvegicus, UniProt P35439)", "> 30 µM"],
  ["CC1CC(OC(=O)C(O)c2ccccc2)CC(C)(C)C1 (centres undefined) [CYCLANDELATE]", "Glutamate receptor ionotropic, NMDA 1 (Rattus norvegicus, UniProt P35439)", "> 10 µM"],
  ["CC(C)(C)NCC(O)COc1cccc2c1CC(O)C(O)C2 (centres undefined)", "Glutamate receptor ionotropic, NMDA 1 (Rattus norvegicus, UniProt P35439)", "> 10 µM"]
]}

Lookup: Enter reported AC50 observed with Glutamate receptor ionotropic, NMDA 1 (Rattus norvegicus, UniProt P35439) for C[C@H](N)C(=O)N[C@@H](CCC(N)=O)C(=O)O [ALANYL GLUTAMINE] (H-Ala-Gln-OH)
Found: > 30 µM

Lookup: Enter reported AC50 observed with Glutamate receptor ionotropic, NMDA 1 (Rattus norvegicus, UniProt P35439) for `CN(C)CCC=C1c2ccccc2CCc2ccccc21`
Found: > 10 µM

Lookup: Enter reported AC50 observed with Glutamate receptor ionotropic, NMDA 1 (Rattus norvegicus, UniProt P35439) for `NCCCNCCSP(=O)(O)O`
Found: > 30 µM

Lookup: Enter reported AC50 observed with Glutamate receptor ionotropic, NMDA 1 (Rattus norvegicus, UniProt P35439) for Clc1ccc(COC(Cn2ccnc2)c2ccc(Cl)cc2Cl)c(Cl)c1 (centres undefined)
Found: > 10 µM

Lookup: Enter reported AC50 observed with Glutamate receptor ionotropic, NMDA 1 (Rattus norvegicus, UniProt P35439) for `CC(C)C[C@H](NC(=O)[C@H](Cc1ccccc1)NC(=O)c1cnccn1)B(O)O`
Found: > 30 µM

Lookup: Enter reported AC50 observed with Glutamate receptor ionotropic, NMDA 1 (Rattus norvegicus, UniProt P35439) for `O=C1CN=C(c2ccccc2Cl)c2cc([N+](=O)[O-])ccc2N1`
Found: > 10 µM
